pIC50 listing for selected molecules.
system: Plasmodium falciparum; assay: Antimalarial activity against chloroquine-sensitive Plasmodium falciparum D6 assessed as inhibition of [3H]hypoxanthine incorporation after 96 hrs by microtiter plate scintillation counting; format: functional, organism-based
Hey, just a heads up that pIC50 is the negative log base 10 of the concentration in molar.

Example molecules with recorded pIC50:
{"columns": ["MOLECULE", "pIC50"],
 "data": [
  ["CC[C@H]1OC(=O)[C@H](C)[C@@H](O[C@H]2C[C@@](C)(OC)[C@@H](O)[C@H](C)O2)[C@H](C)[C@@H](O[C@@H]2O[C@H](C)C[C@H](N(C)C)[C@H]2O)[C@](C)(O)C[C@@H](C)CN(CCCNC(=S)Nc2sc3c(c2C(=O)OC)CCCC3)[C@H](C)[C@@H](O)[C@]1(C)O", 6.08],
  ["CC[C@H]1OC(=O)[C@H](C)[C@@H](O[C@H]2C[C@@](C)(OC)[C@@H](O)[C@H](C)O2)[C@H](C)[C@@H](O[C@@H]2O[C@H](C)C[C@H](N(C)C)[C@H]2O)[C@](C)(O)C[C@@H](C)CN(CCCNC(=S)Nc2ccccc2F)[C@H](C)[C@@H](O)[C@]1(C)O", 6.01]
]}

Query block: Recorded pIC50 for "CC[C@H]1OC(=O)[C@H](C)[C@@H](O[C@H]2C[C@@](C)(OC)[C@@H](O)[C@H](C)O2)[C@H](C)[C@@H](O[C@@H]2O[C@H](C)C[C@H](N(C)C)[C@H]2O)[C@](C)(O)C[C@@H](C)CN(CCCNC(=S)Nc2cccc([N+](=O)[O-])c2)[C@H](C)[C@@H](O)[C@]1(C)O" , please?
Result block: 7.27

Query block: Recorded pIC50 for CC[C@H]1OC(=O)[C@H](C)[C@@H](O[C@H]2C[C@@](C)(OC)[C@@H](O)[C@H](C)O2)[C@H](C)[C@@H](O[C@@H]2O[C@H](C)C[C@H](N(C)C)[C@H]2O)[C@](C)(O)C[C@@H](C)CN(CCCNC(=S)NCC2CC3CCC2C3)[C@H](C)[C@@H](O)[C@]1(C)O (some centres not stated) , please?
Result block: 6.60

Query block: Recorded pIC50 for "CC[C@H]1OC(=O)[C@H](C)[C@@H](O[C@H]2C[C@@](C)(OC)[C@@H](O)[C@H](C)O2)[C@H](C)[C@@H](O[C@@H]2O[C@H](C)C[C@H](N(C)C)[C@H]2O)[C@](C)(O)C[C@@H](C)CN(CCCNC(=O)Nc2cccs2)[C@H](C)[C@@H](O)[C@]1(C)O" , please?
Result block: 6.02

Query block: Recorded pIC50 for "CC[C@H]1OC(=O)[C@H](C)[C@@H](O[C@H]2C[C@@](C)(OC)[C@@H](O)[C@H](C)O2)[C@H](C)[C@@H](O[C@@H]2O[C@H](C)C[C@H](N(C)C)[C@H]2O)[C@](C)(O)C[C@@H](C)CN(CCCNC(=S)NCC23CC4CC(CC(C4)C2)C3)[C@H](C)[C@@H](O)[C@]1(C)O" , please?
Result block: 6.26

Query block: Recorded pIC50 for "CC[C@H]1OC(=O)[C@H](C)[C@@H](O[C@H]2C[C@@](C)(OC)[C@@H](O)[C@H](C)O2)[C@H](C)[C@@H](O[C@@H]2O[C@H](C)C[C@H](N(C)C)[C@H]2O)[C@](C)(O)C[C@@H](C)CN(CCCNC(=S)Nc2ccc(Cl)c(Cl)c2)[C@H](C)[C@@H](O)[C@]1(C)O" , please?
Result block: 6.53

* * *

pIC50 listing for selected molecules.
system: Plasmodium falciparum; experiment: Antimalarial activity against chloroquine-,pyrimethamine-resistant Plasmodium falciparum W2 assessed as inhibition of [3H]hypoxanthine incorporation after 96 hrs by microtiter plate scintillation counting; assay type: functional, organism-based
Hey, just a heads up that pIC50 is the negative log base 10 of the concentration in molar.

{"columns": ["STRUCTURE NOTATION", "pIC50"],
 "data": [
  ["CC[C@H]1OC(=O)[C@H](C)[C@@H](O[C@H]2C[C@@](C)(OC)[C@@H](O)[C@H](C)O2)[C@H](C)[C@@H](O[C@@H]2O[C@H](C)C[C@H](N(C)C)[C@H]2O)[C@](C)(O)C[C@@H](C)CN(CCCNC(=S)Nc2cc(Cl)cc(Cl)c2)[C@H](C)[C@@H](O)[C@]1(C)O", 7.37],
  ["CC[C@H]1OC(=O)[C@H](C)[C@@H](O[C@H]2C[C@@](C)(OC)[C@@H](O)[C@H](C)O2)[C@H](C)[C@@H](O[C@@H]2O[C@H](C)C[C@H](N(C)C)[C@H]2O)[C@](C)(O)C[C@@H](C)CN(CCCNC(=O)Nc2ccc(OC)cc2)[C@H](C)[C@@H](O)[C@]1(C)O", 6.59],
  ["CC[C@H]1OC(=O)[C@H](C)[C@@H](O[C@H]2C[C@@](C)(OC)[C@@H](O)[C@H](C)O2)[C@H](C)[C@@H](O[C@@H]2O[C@H](C)C[C@H](N(C)C)[C@H]2O)[C@](C)(O)C[C@@H](C)CN(CCCNC(=S)NC(=O)c2ccccc2)[C@H](C)[C@@H](O)[C@]1(C)O", 6.97]
]}

Query block: Recorded pIC50 for "CC[C@H]1OC(=O)[C@H](C)[C@@H](O[C@H]2C[C@@](C)(OC)[C@@H](O)[C@H](C)O2)[C@H](C)[C@@H](O[C@@H]2O[C@H](C)C[C@H](N(C)C)[C@H]2O)[C@](C)(O)C[C@@H](C)CN(CCCNC(=O)NCC2CCCCC2)[C@H](C)[C@@H](O)[C@]1(C)O" , please?
Result block: 6.95

* * *

pIC50 listing for selected compounds.
tested on: Plasmodium falciparum; experiment: Antimalarial activity against chloroquine-,pyrimethamine-resistant Plasmodium falciparum W2 assessed as inhibition of [3H]hypoxanthine incorporation after 96 hrs by microtiter plate scintillation counting; format: functional, organism-based
Hey, just a heads up that pIC50 is the negative log base 10 of the concentration in molar.

{"columns": ["STRUCTURE NOTATION", "pIC50"],
 "data": [
  ["CC[C@H]1OC(=O)[C@H](C)[C@@H](O[C@H]2C[C@@](C)(OC)[C@@H](O)[C@H](C)O2)[C@H](C)[C@@H](O[C@@H]2O[C@H](C)C[C@H](N(C)C)[C@H]2O)[C@](C)(O)C[C@@H](C)CN(CCCNC(=S)N[C@H]2CCCC[C@H]2OCc2ccccc2)[C@H](C)[C@@H](O)[C@]1(C)O", 6.56]
]}

Query block: Recorded pIC50 for "CC[C@H]1OC(=O)[C@H](C)[C@@H](O[C@H]2C[C@@](C)(OC)[C@@H](O)[C@H](C)O2)[C@H](C)[C@@H](O[C@@H]2O[C@H](C)C[C@H](N(C)C)[C@H]2O)[C@](C)(O)C[C@@H](C)CN(CCCNC(=O)Nc2cccc3nsnc23)[C@H](C)[C@@H](O)[C@]1(C)O" , please?
Result block: 7.16

Query block: Recorded pIC50 for "CC[C@H]1OC(=O)[C@H](C)[C@@H](O[C@H]2C[C@@](C)(OC)[C@@H](O)[C@H](C)O2)[C@H](C)[C@@H](O[C@@H]2O[C@H](C)C[C@H](N(C)C)[C@H]2O)[C@](C)(O)C[C@@H](C)CN(CCCNC(=S)Nc2ccc(F)c(F)c2F)[C@H](C)[C@@H](O)[C@]1(C)O" , please?
Result block: 6.78

Query block: Recorded pIC50 for "CC[C@H]1OC(=O)[C@H](C)[C@@H](O[C@H]2C[C@@](C)(OC)[C@@H](O)[C@H](C)O2)[C@H](C)[C@@H](O[C@@H]2O[C@H](C)C[C@H](N(C)C)[C@H]2O)[C@](C)(O)C[C@@H](C)CN(CCCNC(=O)Nc2ccc(F)c(F)c2)[C@H](C)[C@@H](O)[C@]1(C)O" , please?
Result block: 7.05

Query block: Recorded pIC50 for "CCc1ccc(NC(=O)NCCCN2C[C@H](C)C[C@@](C)(O)[C@H](O[C@@H]3O[C@H](C)C[C@H](N(C)C)[C@H]3O)[C@@H](C)[C@H](O[C@H]3C[C@@](C)(OC)[C@@H](O)[C@H](C)O3)[C@@H](C)C(=O)O[C@H](CC)[C@@](C)(O)[C@H](O)[C@H]2C)cc1" , please?
Result block: 7.13

Query block: Recorded pIC50 for "CC[C@H]1OC(=O)[C@H](C)[C@@H](O[C@H]2C[C@@](C)(OC)[C@@H](O)[C@H](C)O2)[C@H](C)[C@@H](O[C@@H]2O[C@H](C)C[C@H](N(C)C)[C@H]2O)[C@](C)(O)C[C@@H](C)CN(CCCNC(=S)NCC23CC4CC(CC(C4)C2)C3)[C@H](C)[C@@H](O)[C@]1(C)O" , please?
Result block: 6.68

Query block: Recorded pIC50 for "CC[C@H]1OC(=O)[C@H](C)[C@@H](O[C@H]2C[C@@](C)(OC)[C@@H](O)[C@H](C)O2)[C@H](C)[C@@H](O[C@@H]2O[C@H](C)C[C@H](N(C)C)[C@H]2O)[C@](C)(O)C[C@@H](C)CN(CCCNC(=S)Nc2ccsc2C(=O)OC)[C@H](C)[C@@H](O)[C@]1(C)O" , please?
Result block: 6.43

Cited source: ChEMBL document CHEMBL1681728
